# SYSTEM NAME: Kappa-type opioid receptor (Homo sapiens)
# Sequence (P41145 whole entry): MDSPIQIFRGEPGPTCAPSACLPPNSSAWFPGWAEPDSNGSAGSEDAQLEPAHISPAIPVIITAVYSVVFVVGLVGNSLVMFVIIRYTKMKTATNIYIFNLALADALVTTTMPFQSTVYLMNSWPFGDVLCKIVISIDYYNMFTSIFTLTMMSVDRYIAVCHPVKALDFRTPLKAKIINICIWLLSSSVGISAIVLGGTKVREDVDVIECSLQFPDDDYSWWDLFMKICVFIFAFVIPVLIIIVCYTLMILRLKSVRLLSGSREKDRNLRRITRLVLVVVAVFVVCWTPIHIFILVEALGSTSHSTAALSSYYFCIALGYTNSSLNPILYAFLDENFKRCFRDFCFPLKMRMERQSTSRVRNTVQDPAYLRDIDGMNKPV
# TEST PROTOCOL: Displacement of [3H]U-69593 from human recombinant kappa opioid receptor expressed in CHO cells
OBSERVATION TYPE: Ki (nM)

# SMILES DATA, MEASUREMENT UNIT, RECORDED VALUE
data = [
    ("CN1CC[C@]23c4c5ccc(O)c4O[C@H]2c2c(c4c(n2C)CCCC4)C[C@@]3(O)C1C5", "nM", 89.1),
    ("Cn1c2c(c3c1[C@@H]1Oc4c(O)ccc5c4[C@@]14CCN(CC1CC1)[C@H](C5)[C@]4(O)C3)CCCC2", "nM", 4.11),
    ("Oc1ccc2c3c1O[C@H]1c4c(c5c(n4CC4CC4)CCCC5)C[C@@]4(O)C(C2)N(CC2CC2)CC[C@]314", "nM", 2.51),
    ("CN1CC[C@]23c4c5ccc(O)c4O[C@H]2c2c(c4c(n2CCc2ccccc2)CCCC4)C[C@@]3(O)C1C5", "nM", 163),
]

====

In this section, each of the compounds is paired with its reported log10(EC50).
# SYSTEM NAME: Kappa-type opioid receptor (Homo sapiens)
# TEST PROTOCOL: Activity at human recombinant kappa opioid receptor expressed in CHO cells by [35S]GTPgammaS binding assay
OBSERVATION TYPE: log10(EC50) (log10 of the value in nM)

# SMILES DATA, SYSTEM NAME, log10(EC50)
rows = [
    ("CN1CC[C@]23c4c5ccc(O)c4O[C@H]2c2c(c4c(n2Cc2ccccc2)CCCC4)C[C@@]3(O)C1C5", "Kappa-type opioid receptor (Homo sapiens)", 3.24),
    ("CN1CC[C@]23c4c5ccc(O)c4O[C@H]2c2c(c4c(n2C)CCCC4)C[C@@]3(O)C1C5", "Kappa-type opioid receptor (Homo sapiens)", 1.99),
    ("CCn1c2c(c3c1[C@@H]1Oc4c(O)ccc5c4[C@@]14CCN(CC1CC1)C(C5)[C@]4(O)C3)CCCC2", "Kappa-type opioid receptor (Homo sapiens)", 1.16),
    ("Oc1ccc2c3c1O[C@H]1c4c(c5c(n4CCc4ccccc4)CCCC5)C[C@@]4(O)C(C2)N(CC2CC2)CC[C@]314", "Kappa-type opioid receptor (Homo sapiens)", 1.14),
    ("Oc1ccc2c3c1O[C@H]1c4c(c5c(n4CC4CCCCC4)CCCC5)C[C@@]4(O)C(C2)N(CC2CC2)CC[C@]314", "Kappa-type opioid receptor (Homo sapiens)", 1.73),
    ("CCn1c2c(c3c1[C@@H]1Oc4c(O)ccc5c4[C@@]14CCN(C)C(C5)[C@]4(O)C3)CCCC2", "Kappa-type opioid receptor (Homo sapiens)", 1.99),
    ("CN1CC[C@]23c4c5ccc(O)c4O[C@H]2c2c(c4c(n2CC2CCCCC2)CCCC4)C[C@@]3(O)C1C5", "Kappa-type opioid receptor (Homo sapiens)", 2.18),
    ("CN1CC[C@]23c4c5ccc(O)c4O[C@H]2c2c(c4c(n2CCc2ccccc2)CCCC4)C[C@@]3(O)C1C5", "Kappa-type opioid receptor (Homo sapiens)", 2.12),
]

====

# SYSTEM NAME: Mu-type opioid receptor (Homo sapiens, UniProt P35372)
# Sequence (P35372 whole entry): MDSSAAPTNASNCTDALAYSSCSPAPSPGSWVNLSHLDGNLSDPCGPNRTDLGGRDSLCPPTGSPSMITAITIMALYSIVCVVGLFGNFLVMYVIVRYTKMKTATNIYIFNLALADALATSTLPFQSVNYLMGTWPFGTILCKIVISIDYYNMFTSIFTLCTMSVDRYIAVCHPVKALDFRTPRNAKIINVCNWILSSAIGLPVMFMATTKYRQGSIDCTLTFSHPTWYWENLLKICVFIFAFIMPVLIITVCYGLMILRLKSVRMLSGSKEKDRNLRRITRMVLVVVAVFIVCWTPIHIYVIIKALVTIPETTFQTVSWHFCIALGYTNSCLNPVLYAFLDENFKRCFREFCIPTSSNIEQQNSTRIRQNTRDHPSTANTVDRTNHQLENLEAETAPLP
# TEST PROTOCOL: Activity at human recombinant mu opioid receptor expressed in CHO cells by [35S]GTPgammaS binding assay relative to DAMGO
# Type: functional, cell-based
Assign criterion met whenever Activity does not fall below 60%; assign criterion not met whenever it does.

# SMILES DATA, ANSWER LABEL
records = [
    ("CCn1c2c(c3c1[C@@H]1Oc4c(O)ccc5c4[C@@]14CCN(C)C(C5)[C@]4(O)C3)CCCC2", "criterion not met"),
    ("CN1CC[C@]23c4c5ccc(O)c4O[C@H]2c2c(c4c(n2CC2CCCCC2)CCCC4)C[C@@]3(O)C1C5", "criterion not met"),
    ("CN1CC[C@]23c4c5ccc(O)c4O[C@H]2c2c(c4c(n2Cc2ccccc2)CCCC4)C[C@@]3(O)C1C5", "criterion not met"),
    ("CN1CC[C@]23c4c5ccc(O)c4O[C@H]2c2c(c4c(n2CCc2ccccc2)CCCC4)C[C@@]3(O)C1C5", "criterion met"),
    ("CN1CC[C@]23c4c5ccc(O)c4O[C@H]2c2c(c4c(n2C)CCCC4)C[C@@]3(O)C1C5", "criterion not met"),
]
